Reported IC50 by item:
- ASSAYED_SYSTEM: Human IL-17A (Homo sapiens, UniProt Q16552)
- Sequence (Q16552 20-155 limits assumed): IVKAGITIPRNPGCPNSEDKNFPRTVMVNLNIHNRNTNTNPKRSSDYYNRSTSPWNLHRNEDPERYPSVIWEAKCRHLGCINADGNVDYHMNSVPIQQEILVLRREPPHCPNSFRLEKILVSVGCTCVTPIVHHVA
- PROTOCOL_SUMMARY: IL-17A enzyme-linked immunosorbent assay (competitive ELISA, IL-17A/IL-17Ra receptor-ligand binding)
- Parameters: purchased Sino Biological Inc. 12047-H07B
- ASSAY_CONDITIONS: human IL-17A coated plate, human IL-17Ra, read-out: IC50, inhibitory activity of compounds on human IL-17A
READOUT: IC50

Cc1[nH]nc2c1-c1cc(F)c(NC(=O)[C@@H](NC(=O)c3ccnn3C(C)C)C(C3CC3)C3CC3)cc1COCC2 [compound 15]	≤ 50 nM
COCCn1nccc1C(=O)N[C@H](C(=O)Nc1cc2c(cc1F)-c1c(n[nH]c1C)CCOC2)C(C1CC1)C1CC1 [compound 57]	≤ 50 nM
Cc1[nH]nc2c1-c1cnc(NC(=O)[C@@H](NC(=O)OC3CCC3)C(C3CC3)C3CC3)cc1COCC2 [compound 247]	50 to 150 nM
CCC(C)n1nccc1C(=O)N[C@H](C(=O)Nc1cc2c(cc1F)-c1c(n[nH]c1C)CCOC2)C(C1CC1)C1CC1 (single isomer, unassigned) [compound 123b]	≤ 50 nM
Cc1[nH]nc2c1-c1cnc(NC(=O)[C@@H](NC(=O)c3ccnn3C(C)C)C(C3CC3)C3CC3)cc1CN(C1CC1)CC2 [compound 198]	≤ 50 nM
Cc1[nH]nc2c1-c1cc(F)c(NC(=O)[C@@H](NC(=O)c3ccnn3CCOCC(F)(F)F)C(C3CC3)C3CC3)cc1COCC2 [compound 104]	≤ 50 nM
Cc1[nH]nc2c1-c1cnc(NC(=O)[C@@H](NC(=O)c3ccnn3C(C)C)C(C3CC3)C3CC3)cc1CN(C1CC(F)(F)C1)C(=O)C2 [compound 194]	≤ 50 nM
CSCC(C)n1nccc1C(=O)N[C@H](C(=O)Nc1cc2c(cc1F)-c1c(n[nH]c1C)CCOC2)C(C1CC1)C1CC1 (single isomer, unassigned) [compound 40a]	50 to 150 nM
C=C(F)C(=O)N[C@H](C(=O)Nc1cc2c(cc1F)-c1c(n[nH]c1C)CC(=O)N(C(C)C(F)(F)F)C2)C(C1CC1)C1CC1 (mixture of isomers) [compound 253]	≤ 50 nM
Cc1[nH]nc2c1-c1cc(F)c(NC(=O)[C@@H](NC(=O)c3ccnn3C(C)C)C(C3CC3)C3CC3)cc1CN(C)CC2 [compound 154]	≤ 50 nM
Cc1[nH]nc2c1-c1cc(F)c(NC(=O)[C@@H](NC(=O)c3ccnn3C(C)C)C(C3CC3)C3CC3)cc1CN(C(C)C)C(=O)C2 [compound 150]	≤ 50 nM
[2H]C([2H])([2H])C([2H])(n1nccc1C(=O)N[C@H](C(=O)Nc1cc2c(cn1)-c1c(n[nH]c1C)CCOC2)C(C1CC1)C1CC1)C([2H])([2H])[2H] [compound 54]	≤ 50 nM

----------
Reported pIC50 by item:
- ASSAYED_SYSTEM: Human IL-17A (Homo sapiens, UniProt Q16552)
- Sequence (Q16552 20-155 limits assumed): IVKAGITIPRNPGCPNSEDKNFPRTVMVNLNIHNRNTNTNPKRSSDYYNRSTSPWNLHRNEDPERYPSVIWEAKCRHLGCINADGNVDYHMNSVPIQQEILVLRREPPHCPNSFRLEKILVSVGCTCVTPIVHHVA
- PROTOCOL_SUMMARY: IL-17A enzyme-linked immunosorbent assay (competitive ELISA, IL-17A/IL-17Ra receptor-ligand binding)
- Set-up: purchased Sino Biological Inc. 12047-H07B
- ASSAY_CONDITIONS: human IL-17A coated plate, human IL-17Ra, read-out: IC50, inhibitory activity of compounds on human IL-17A
pIC50: −log10 of the molar value.
READOUT: pIC50

Cc1[nH]nc2c1-c1cc(F)c(NC(=O)[C@@H](NC(=O)c3ccnn3C(C)C3CC3)C(C3CC3)C3CC3)cc1COCC2 (single isomer, unassigned) [compound 41b]	≥ 7.30
Cc1[nH]nc2c1-c1cc(F)c(NC(=O)[C@@H](NC(=O)c3ccnn3[C@H]3CCOC3)C(C3CC3)C3CC3)cc1COCC2	6.82 to 7.30
Cc1[nH]nc2c1-c1cc(F)c(NC(=O)[C@@H](NC(=O)c3ccnn3C(C)C)C3CCCCC3)cc1COCC2	≥ 7.30

// data source = patent US20260258050A1
